In this section, each of the compounds is paired with its reported RP-LC retention time.
experiment-notes: gradient 5% acetonitrile 3 min, to 50% in 2 min, to 85% in 15 min, held 3 min, 100 µL/min
stated-conditions: column: Zorbax Extend-C18 2.1 x 50 mm; eluents: water / acetonitrile, 0.1% formic acid
The figure you give is taken to be in s; do not add the unit.

compound	measurement-name	value-unit	result-number
CCNC(=O)c1cc2cc(Br)ccc2[nH]1	RP-LC retention time	s	828
CCOc1nc2ccccc2nc1N1CCCC(C(=O)Nc2ccc(Br)c(C)c2)C1 (stereo not given)	RP-LC retention time	s	1420
Cc1ccn2cc(-c3ccc(NC(=O)COc4ccccc4)cc3)nc2n1	RP-LC retention time	s	663
COc1ccc(OC)c(S(=O)(=O)N2CCCN(S(=O)(=O)c3ccccc3)CCC(=O)NCC2)c1	RP-LC retention time	s	793

Let us examine a further case.
**Query** Endpoint output: RP-LC retention time of `Cc1ccc(CNC(=O)CCCn2nc(-n3cccc3)c3c(C)cc(C)nc32)cc1` . Value?
**Result** 1050
